biological target: MenA (Mycobacterium tuberculosis, UniProt P9WIP3)
Sequence (P9WIP3 whole entry): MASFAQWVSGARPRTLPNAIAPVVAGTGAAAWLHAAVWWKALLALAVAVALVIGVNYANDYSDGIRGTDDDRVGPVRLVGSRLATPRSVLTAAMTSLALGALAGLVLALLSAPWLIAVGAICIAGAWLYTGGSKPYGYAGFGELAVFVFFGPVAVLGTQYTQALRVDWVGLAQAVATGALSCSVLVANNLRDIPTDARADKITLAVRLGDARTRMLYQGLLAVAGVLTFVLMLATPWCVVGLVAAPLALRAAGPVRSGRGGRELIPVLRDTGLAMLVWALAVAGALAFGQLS
MEASURED_ATTRIBUTE: pIC50
The value called pIC50 is obtained by taking minus log10 of the concentration in mol/L.

IN: Which measured pIC50 belongs to C=CCN(C)CCCCCCOc1ccc(C(=O)c2ccc(Br)cc2)c(F)c1 [Ro 48-8071] , tested on MenA (Mycobacterium tuberculosis, UniProt P9WIP3)?
OUT: 5.05
